test system: P388 leukemia ip, CD2F1 mice, survival T/C; test: NCI In Vivo Anticancer Drug Screen. Data for tumor model P388 Leukemia (intraperitoneal) in CD2F1 (CDF1) mice; details: endpoint: median survival time; dose: 6.25 mg/kg/injection; schedule: Q01DX005 (ip); vehicle: Klucel (hydroxypropylcellulose) (HPC); higher = longer survival
Inconclusive results and toxic doses are left out.
Readout kind: T/C

[[record]]
molecule = "COc1ccc2c3c([nH]c2c1)[C@H](CC(C)(C)O)N1C(=O)[C@@H]2CCCN2C(=O)[C@]1(O)[C@H]3O"
measured_target = "P388 leukemia ip, CD2F1 mice, survival T/C"
readout_kind = "T/C"
result_value = "100 % of control"

[[record]]
molecule = "CCCCCCCCCCNCCSSCCNC(C)=O"
measured_target = "P388 leukemia ip, CD2F1 mice, survival T/C"
readout_kind = "T/C"
result_value = "105 % of control"

[[record]]
molecule = "C=C1C(=O)O[C@@H]2C[C@@H](C)[C@@H]3C=CC(=O)[C@@]3(C)[C@@H](OC(=O)CCCC(=O)O[C@H]3[C@@H]4C(=C)C(=O)O[C@@H]4C[C@@H](C)[C@@H]4C=CC(=O)[C@]43C)[C@H]12"
measured_target = "P388 leukemia ip, CD2F1 mice, survival T/C"
readout_kind = "T/C"
result_value = "109 % of control"

[[record]]
molecule = "COC(=O)/C=C1\\C=CC(=O)OC1O (centres undefined)"
measured_target = "P388 leukemia ip, CD2F1 mice, survival T/C"
readout_kind = "T/C"
result_value = "102 % of control"

[[record]]
molecule = "CCc1nc(N)nc(N)c1-c1ccc([N+](C)(C)C)cc1"
measured_target = "P388 leukemia ip, CD2F1 mice, survival T/C"
readout_kind = "T/C"
result_value = "101 % of control"

[[record]]
molecule = "CC(=O)OC1C2C(OC3OC(=O)/C(=C\\C=C4\\CCCC(C)(C)C4)C32)O[C@H]1OC(C)=O (some centres undefined)"
measured_target = "P388 leukemia ip, CD2F1 mice, survival T/C"
readout_kind = "T/C"
result_value = "105 % of control"

[[record]]
molecule = "CCCCCCCN(CCCCCCC)C(=N)c1ccc(OC)c2ccccc12"
measured_target = "P388 leukemia ip, CD2F1 mice, survival T/C"
readout_kind = "T/C"
result_value = "101 % of control"

[[record]]
molecule = "COc1ccc2nc(C)c3c(c2c1)C(=O)N(CCCN1CCN(CCCN2C(=O)c4c(C)nc5ccc(OC)cc5c4C2=O)CC1)C3=O"
measured_target = "P388 leukemia ip, CD2F1 mice, survival T/C"
readout_kind = "T/C"
result_value = "93 % of control"

[[record]]
molecule = "O=C([O][Bi]([c]1ccccc1)[c]1ccccc1)c1ccccc1"
measured_target = "P388 leukemia ip, CD2F1 mice, survival T/C"
readout_kind = "T/C"
result_value = "113 % of control"

